# measurement.target: CD28, endogenously expressed on Jurkat/IL2 reporter cells (human) (UniProt P10747)
# method.summary: flow cytometry on Jurkat/IL2 reporter cells (endogenous CD28), 33.3 nM Fc fusion, PE anti-human Fc
Assignment: determine reported MFI at 33.3 nM for the given binders.
One number for each entry, in MFI.

Check out these entries, answers already filled in.
binder	readout.units	MFI at 33.3 nM
variant CD80 IgV-Fc E35D/M47V (Fc fusion) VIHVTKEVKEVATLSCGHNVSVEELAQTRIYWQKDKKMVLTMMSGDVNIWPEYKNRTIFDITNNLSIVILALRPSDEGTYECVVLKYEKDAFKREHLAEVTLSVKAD	MFI	461
variant CD80 IgV-Fc E35D/D46E/L85M (Fc fusion) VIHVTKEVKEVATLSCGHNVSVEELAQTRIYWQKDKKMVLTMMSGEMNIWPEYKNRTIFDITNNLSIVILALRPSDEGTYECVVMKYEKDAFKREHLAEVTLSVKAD	MFI	164
variant CD80 IgV-Fc E35D/L97R (Fc fusion) VIHVTKEVKEVATLSCGHNVSVEELAQTRIYWQKDKKMVLTMMSGDMNIWPEYKNRTIFDITNNLSIVILALRPSDEGTYECVVLKYEKDAFKREHRAEVTLSVKAD	MFI	44.6

Here is the next item to consider.
I would be grateful if you could share the reported MFI at 33.3 nM for variant CD80 IgV-Fc M47I/A71G (Fc fusion) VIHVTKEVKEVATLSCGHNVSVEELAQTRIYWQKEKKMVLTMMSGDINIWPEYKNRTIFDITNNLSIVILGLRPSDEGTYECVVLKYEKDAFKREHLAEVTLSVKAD . 823
